Molecular target: human ether-à-go-go-related gene (hERG) potassium channel (human, UniProt Q12809)
Sequence (Q12809 whole entry, looked up): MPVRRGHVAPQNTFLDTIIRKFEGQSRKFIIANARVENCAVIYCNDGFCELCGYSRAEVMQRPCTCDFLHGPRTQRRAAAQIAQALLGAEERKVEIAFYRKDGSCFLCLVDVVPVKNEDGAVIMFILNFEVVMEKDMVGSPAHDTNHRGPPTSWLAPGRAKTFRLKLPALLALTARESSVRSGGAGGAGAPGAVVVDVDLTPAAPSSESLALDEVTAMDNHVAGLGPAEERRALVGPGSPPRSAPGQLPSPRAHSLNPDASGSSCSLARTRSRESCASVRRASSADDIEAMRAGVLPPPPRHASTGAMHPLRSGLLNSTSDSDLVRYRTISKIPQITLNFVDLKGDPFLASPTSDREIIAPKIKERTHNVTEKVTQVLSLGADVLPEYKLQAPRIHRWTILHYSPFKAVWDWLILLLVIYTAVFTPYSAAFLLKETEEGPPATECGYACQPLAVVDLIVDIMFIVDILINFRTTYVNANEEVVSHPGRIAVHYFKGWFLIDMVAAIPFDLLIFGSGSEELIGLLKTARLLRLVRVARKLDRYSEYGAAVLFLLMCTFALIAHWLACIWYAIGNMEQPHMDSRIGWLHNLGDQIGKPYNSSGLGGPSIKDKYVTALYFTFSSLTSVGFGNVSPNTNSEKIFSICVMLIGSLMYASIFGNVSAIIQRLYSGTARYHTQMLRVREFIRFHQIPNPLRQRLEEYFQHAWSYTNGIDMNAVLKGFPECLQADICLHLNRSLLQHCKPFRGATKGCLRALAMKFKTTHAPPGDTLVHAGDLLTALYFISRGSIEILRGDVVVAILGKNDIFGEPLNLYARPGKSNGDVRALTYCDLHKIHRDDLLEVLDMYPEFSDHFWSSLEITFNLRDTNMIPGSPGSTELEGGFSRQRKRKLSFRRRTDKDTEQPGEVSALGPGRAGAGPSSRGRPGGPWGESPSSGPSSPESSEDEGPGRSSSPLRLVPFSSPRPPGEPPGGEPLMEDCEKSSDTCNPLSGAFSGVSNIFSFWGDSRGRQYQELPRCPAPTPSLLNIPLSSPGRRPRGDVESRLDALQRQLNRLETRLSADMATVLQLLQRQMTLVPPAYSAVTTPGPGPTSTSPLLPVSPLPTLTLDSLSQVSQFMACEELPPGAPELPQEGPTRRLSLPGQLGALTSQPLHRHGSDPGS
Test: primary screen, population patch clamp on CHO cells stably expressing hERG; higher = less effect of the substance
Protocol: Briefly, Chinese hamster ovary (CHO) cells stably expressing the hERG channel were dislodged from tissue culture flasks and dispensed into PPC plates. […] During the recording, background leak currents were estimated by a 100 ms step to -80 mV from an initial holding potential of -70 mV and subtracted from the subsequent current measurement. The campaign was conducted in two phases using slight differences in recording protocol. […]
Among all 310,000 compounds or so, about 14,000 (4.5%) showed an effect of 50% or more. The effect is printed as a negative number. The full list was thinned out, with strong results kept by preference.
Binary classification by hERG current change (%, negative = inhibition) at 10uM, with -40% as an inclusive lower bound for yes; all other cases are no.

Solved entries:
CC(=O)Nc1ccc(Sc2ccccc2C(=O)O)c(C(=O)O)c1 : yes
C=C1C(=O)O[C@@H]2C[C@@H](C)[C@@H]3C=CC(=O)[C@@]3(C)[C@@H](OC(=O)CC(=O)O[C@H]3[C@@H]4C(=C)C(=O)O[C@@H]4C[C@@H](C)[C@@H]4C=CC(=O)[C@]43C)[C@H]12 : yes
Cc1ccc(COc2coc(CN3CCN(C(=O)c4ccco4)CC3)cc2=O)cc1 : no
Cc1cc(Cl)ccc1NC(=S)NCCCN1CCCC1=O : yes
O=C(c1ccco1)N1CCN(Cc2cc(=O)c(OCc3cccc(Cl)c3)co2)CC1 : no

query: Reported hERG current change (%, negative = inhibition) at 10uM at or above -40%? S=C(Nc1ccc(Cl)cc1Cl)N1CCOCC1
result: yes

query: Please tell me: is the compound O=C(c1ccco1)N1CCN(Cc2cc(=O)c(OCc3ccccc3Cl)co2)CC1 at or over -40% in terms of hERG current change (%, negative = inhibition) at 10uM?
result: no

query: Answer whether hERG current change (%, negative = inhibition) at 10uM of O=C(c1ccco1)N1CCN(Cc2cc(=O)c(OCc3ccccc3F)co2)CC1 is greater than or equal to -40%.
result: yes

query: Is it the case that CCCNC(=O)COc1coc(CN2CCN(C(=O)c3ccco3)CC2)cc1=O has hERG current change (%, negative = inhibition) at 10uM reaching or exceeding -40%?
result: yes

* * *

target: human ether-à-go-go-related gene (hERG) potassium channel (human, UniProt Q12809); experiment: primary screen, population patch clamp on CHO cells stably expressing hERG; higher = less effect of the substance;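 also: peak tail current of the secondary pulse compared with the same well before compound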
The whole screen tested about 310,000 compounds, of which about 14,000 (4.5%) showed an effect of 50% or more. Effects have a minus sign here. What follows is part of a selection rich in strong results, with near analogues and random picks from the rest.
# cutoff -30% applies to hERG current change (%, negative = inhibition) at 10uM; >= gives 1, < gives 0

COCC1CCCN(Cc2cn[nH]c2-c2cc3ccccc3o2)C1 (centres unmarked) : 0

query: Dear colleague, could you confirm whether O=C(c1ccccn1)C1CCCN(Cc2cn[nH]c2-c2cc3ccccc3o2)C1 (centres unmarked) has hERG current change (%, negative = inhibition) at 10uM at or above -30%?
result: 0

query: Form field: hERG current change (%, negative = inhibition) at 10uM at least -30%? Entry: CCOC(=O)C1=C(c2ccccc2)NC(N)=NC1c1ccc(OCc2ccc(Cl)cc2)c(OC)c1 (centres unmarked)
result: 0

query: Threshold query (hERG current change (%, negative = inhibition) at 10uM >= -30%) on OC1(CNCc2cn[nH]c2-c2cc3ccccc3o2)CCCCC1
result: 1

query: Hi, just wondering whether COCCN1CCN(Cc2cn[nH]c2-c2cc3ccccc3o2)CC1 shows hERG current change (%, negative = inhibition) at 10uM of -30% or higher.
result: 1

* * *

biological target: human ether-à-go-go-related gene (hERG) potassium channel (human); assay: primary screen, population patch clamp on CHO cells stably expressing hERG; higher = less effect of the substance;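 also: peak tail current of the secondary pulse compared with the same well before compound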
The campaign covered roughly 310,000 compounds. About 14,000 (4.5%) showed an effect of 50% or more. Effects have a minus sign here. Only a selection was taken, and strong results are over-represented in it overall.
readoutLabel: hERG current change (%, negative = inhibition) at 10uM (%)
I only need the number, in %, no unit after it.

Reference set (5 entries):
Cc1c(N)c(C(C)(C)C)cc(C(C)(C)C)c1[N+](=O)[O-] : 0.751
COc1ccc(OC)c(CNn2c(-c3cccc(C)c3)nc3ccccc3c2=O)c1 : 6.92
Cc1ccc2cc(C(=O)O)c(C)nc2c1 : 11.6
O=[N+]([O-])c1ccc(O)c(NC(=S)Nc2ccccc2)c1 : 23.9
CCCCC(=O)Nc1ccc2c(c1)nc(CCN1CCN(c3ccccn3)CC1)n2C : -56.5

Next up:
query: I am curious: what hERG current change (%, negative = inhibition) at 10uM value has been reported for COc1ccc2c(c1)C=C(CN1CCN(C(C)C)C(CCO)C1)CO2 (centres unmarked) ?
result: 5.68

* * *

Recorded hERG current change (%, negative = inhibition) at 10uM values for a group of compounds are listed next.
biological target: human ether-à-go-go-related gene (hERG) potassium channel (human); assay: primary screen, population patch clamp on CHO cells stably expressing hERG; higher = less effect of the substance;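 also: peak tail current of the secondary pulse compared with the same well before compound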
Hit rate of the full screen: of about 310,000 compounds, about 14,000 (4.5%) showed an effect of 50% or more. Effects have a minus sign here. Shown is part of a subset that was picked to be rich in strong results.
Give a bare numeral; the unit % is implied.

Before answering, review these 2 worked examples.
Cc1ccc(NC(=O)N2CCc3ccccc3C2)cc1C : 15.2
CCCCOC(=O)C(C)Sc1n[nH]c(=O)[nH]c1=O (stereo not drawn) : -5.93

--- query ---
query: Requested field: hERG current change (%, negative = inhibition) at 10uM. Item: c1ccc2sc(-c3ccc4c(c3)OCO4)nc2c1
result: -3.16

* * *

molecular target: human ether-à-go-go-related gene (hERG) potassium channel (human); experiment: primary screen, population patch clamp on CHO cells stably expressing hERG; higher = less effect of the substance;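 also: peak tail current of the secondary pulse compared with the same well before compound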
Hit rate of the full screen: of about 310,000 compounds, about 14,000 (4.5%) showed an effect of 50% or more. The effect is printed as a negative number. For the sample, strong results were picked, then their nearest neighbours and some compounds at random.
readoutLabel: hERG current change (%, negative = inhibition) at 10uM (%)
The reply should contain only the number, in %.

O=C(N/N=C/C=C/c1ccccc1)C1CC1(c1ccccc1)c1ccccc1 (stereo not shown) : -1.54
O=C(CCCSc1nc2ccccc2[nH]1)Nc1nnc(C2CC2)s1 : -1.62
Cc1ccc(N2CCN(/N=C/C(Cl)=C/c3ccccc3)CC2)cc1 : -5.13
O=C(CN1CCCCCC1)Nc1ccccc1Cl : 6.75
O=C(Nc1ccccc1Cl)OC1CN2CCC1CC2 (stereo not shown) : -32.9

query: // lookup hERG current change (%, negative = inhibition) at 10uM for O=C(/C=C/c1ccc(Cl)cc1)Nc1ccc(CN2CCOCC2)cc1
result: -28

query: Which measured hERG current change (%, negative = inhibition) at 10uM value corresponds to Clc1ccc2c(c1)C(OC1CN3CCC1CC3)c1ccccc1CS2.O=C(O)/C=C\C(=O)O (stereo not shown) ?
result: -50.6

query: Quick check: hERG current change (%, negative = inhibition) at 10uM of CCCCCCOC(=O)c1ccc(NC(=O)c2cc(OC)c(OC)c(OC)c2Br)cc1 ?
result: 5.84

query: What value of hERG current change (%, negative = inhibition) at 10uM has been reported for the following molecule? COc1ccccc1N1CCN(C(=O)CN2C(=O)c3cccc4cccc(c34)C2=O)CC1
result: 16.9

query: Bench note: what hERG current change (%, negative = inhibition) at 10uM did CCOC(=O)/C=C(\C)Sc1cc(=O)oc2ccccc12 show?
result: -40.4

query: Find the recorded hERG current change (%, negative = inhibition) at 10uM belonging to O=C(N/N=C\c1ccc(O)c([N+](=O)[O-])c1)C1COc2ccccc2O1 (stereo not shown) and report it.
result: -4.56

query: Name the recorded hERG current change (%, negative = inhibition) at 10uM for C=CCSc1nnc(-c2sc(-c3ccccc3)nc2C)n1C .
result: -33.6

query: I am curious: what hERG current change (%, negative = inhibition) at 10uM value has been reported for CCC(=O)NCCCc1nc(-c2ccccc2)no1 ?
result: 5.95

query: Form field: reported hERG current change (%, negative = inhibition) at 10uM of CCN1CC(CN(C)Cc2cn(-c3ccc(C)cc3)nc2-c2ccc(F)cc2)CC1=O (stereo not shown)
result: -35.1

query: hERG current change (%, negative = inhibition) at 10uM for COc1ccc(C(=O)NNC(=O)c2ccc(C(C)(C)C)cc2)cc1 ?
result: 4.1

query: Name the reported hERG current change (%, negative = inhibition) at 10uM value associated with the molecule O=C(O)Cc1sc(Nc2ccccc2)nc1-c1ccc(Cl)cc1
result: 14.6

query: For the molecule CN1C(=O)c2cccc3c(Br)ccc(c23)C1=O , what hERG current change (%, negative = inhibition) at 10uM is on record?
result: -16.2

query: Value lookup for hERG current change (%, negative = inhibition) at 10uM; key = C/C(=N\NC(=O)c1cc(-c2ccccc2C)nc2ccccc12)c1cccnc1
result: -10.3

query: What does the data say about its hERG current change (%, negative = inhibition) at 10uM? Entry: O=C(N/N=C/c1cccnc1)C1CC1(c1ccccc1)c1ccccc1 (stereo not shown)
result: -55.6

query: # lookup: hERG current change (%, negative = inhibition) at 10uM of Brc1ccc2c(c1)C(C1=NCCN1)c1ccccc1CS2.O=C(O)/C=C\C(=O)O (stereo not shown)
result: -20.3

query: Requested read-out: hERG current change (%, negative = inhibition) at 10uM. Entry: O=C(/C=C/c1ccccc1)Nc1ccc(CN2CCOCC2)cc1
result: -62.5

query: For the molecule shown here, O=C(N/N=C/c1ccc(O)c([N+](=O)[O-])c1)C1CC1(c1ccccc1)c1ccccc1 (stereo not shown) , give the reported hERG current change (%, negative = inhibition) at 10uM.
result: -50.7
